# assay_protocol: Metabolic stability in mouse liver microsome after 30 mins
# Assay type: ADME
# measurement_context: liver microsomes, read-out: Stability
Listing of recorded remaining at 0.5 h by entry.
Record the result as a number with its unit.

# record_smiles, remaining at 0.5 h
rows = [
    ("CC(C)(Oc1ccc(Cl)cc1)C(=O)N[C@H]1C2CC3CC1C[C@](CO)(C3)C2", "19%"),
]

Field remaining at 0.5 h (entry CC(C)(Oc1ccc(Cl)cc1)C(=O)N[C@H]1C2CC3CC1C[C@](C(=O)NCc1ccc(-c4nnn[nH]4)cc1)(C3)C2 ) reads 51%

Recorded remaining at 0.5 h (compound CC(C)(Oc1ccc(Cl)cc1)C(=O)N[C@H]1C2CC3CC1C[C@](C(=O)NCc1ccncc1)(C3)C2 ): 16%

The compound identified as CC(C)(Oc1ccc(Cl)cc1)C(=O)N[C@H]1C2CC3CC1C[C@](C(=O)NCc1ccc(S(N)(=O)=O)cc1)(C3)C2 registered its remaining at 0.5 h at 35%

Data credit: ChEMBL document CHEMBL1138420
